Values from patent US10738057B2

Target: PI3Kδ (p110δ/p85α) Recombinant Human Protein (Homo sapiens (Human))
Test: PI3Kδ scintillation proximity assay
Assay type: biochemical
Conditions: 20 μM PIP2, 2 μM ATP, 3.4 nM PI3Kδ, 120 min, room temperature; read-out: PI3Kδ IC50
Structures can show the parent of a compound that is named as a salt.
measured-parameter: IC50

Query Cc1ccc(C(C)(O)CF)cc1-c1cnc2c(N)nc(C(F)(F)F)cn12 (racemic) [Example 24, trifluoroacetate salt] on PI3Kδ (p110δ/p85α) Recombinant Human Protein (Homo sapiens (Human)); IC50 returned: 500 to 2000 nM

// compound Cc1ccc(C(C)(O)C(F)F)cc1-c1cnc2c(N)nc(-c3c(C)n[nH]c3C)cn12 (stereo not shown) , assay PI3Kδ (p110δ/p85α) Recombinant Human Protein (Homo sapiens (Human)), IC50 value: < 100 nM

Log: PI3Kδ (p110δ/p85α) Recombinant Human Protein (Homo sapiens (Human)), compound Cc1ccc(C(C)(O)C(F)F)cc1-c1cnc2c(N)nc(C3CC3CO)cn12 (single isomer, unassigned) [Example 80] , IC50 = 500 to 2000 nM

Hey, PI3Kδ (p110δ/p85α) Recombinant Human Protein (Homo sapiens (Human)) data for Cc1ccc(C(C)(O)C(F)(F)F)cc1-c1cnc2c(N)nc(C(F)(F)F)cn12 (single isomer, unassigned) [Example 5] : IC50 came out at 100 to 500 nM

The measured IC50 that Cc1ccc(C(C)(O)C(F)(F)C(F)(F)F)cc1-c1cnc2c(N)nc(C(F)(F)F)cn12 (single isomer, unassigned) [Example 59] showed for PI3Kδ (p110δ/p85α) Recombinant Human Protein (Homo sapiens (Human)) is 500 to 2000 nM

Tested on PI3Kδ (p110δ/p85α) Recombinant Human Protein (Homo sapiens (Human)): Cc1ccc(C(C)(O)C(F)F)cc1-c1cnc2c(N)nc(-c3cn[nH]c3)cn12 (stereo not shown) . Observed IC50: < 100 nM

Value (IC50, PI3Kδ (p110δ/p85α) Recombinant Human Protein (Homo sapiens (Human))) for record [2H]C([2H])([2H])c1ccc(C(C)(O)C(F)(F)F)cc1-c1cnc2c(N)nc(-c3cnn(C(CC#N)C4CCC4)c3)cn12 (stereo not shown) [Example 86, trifluoroacetate] = 100 to 500 nM

###

For each record, write down the corresponding IC50.
Target: PI3Kγ (p110γ) Recombinant Human Protein (Homo sapiens (Human), UniProt P48736)
Sequence (P48736 whole entry): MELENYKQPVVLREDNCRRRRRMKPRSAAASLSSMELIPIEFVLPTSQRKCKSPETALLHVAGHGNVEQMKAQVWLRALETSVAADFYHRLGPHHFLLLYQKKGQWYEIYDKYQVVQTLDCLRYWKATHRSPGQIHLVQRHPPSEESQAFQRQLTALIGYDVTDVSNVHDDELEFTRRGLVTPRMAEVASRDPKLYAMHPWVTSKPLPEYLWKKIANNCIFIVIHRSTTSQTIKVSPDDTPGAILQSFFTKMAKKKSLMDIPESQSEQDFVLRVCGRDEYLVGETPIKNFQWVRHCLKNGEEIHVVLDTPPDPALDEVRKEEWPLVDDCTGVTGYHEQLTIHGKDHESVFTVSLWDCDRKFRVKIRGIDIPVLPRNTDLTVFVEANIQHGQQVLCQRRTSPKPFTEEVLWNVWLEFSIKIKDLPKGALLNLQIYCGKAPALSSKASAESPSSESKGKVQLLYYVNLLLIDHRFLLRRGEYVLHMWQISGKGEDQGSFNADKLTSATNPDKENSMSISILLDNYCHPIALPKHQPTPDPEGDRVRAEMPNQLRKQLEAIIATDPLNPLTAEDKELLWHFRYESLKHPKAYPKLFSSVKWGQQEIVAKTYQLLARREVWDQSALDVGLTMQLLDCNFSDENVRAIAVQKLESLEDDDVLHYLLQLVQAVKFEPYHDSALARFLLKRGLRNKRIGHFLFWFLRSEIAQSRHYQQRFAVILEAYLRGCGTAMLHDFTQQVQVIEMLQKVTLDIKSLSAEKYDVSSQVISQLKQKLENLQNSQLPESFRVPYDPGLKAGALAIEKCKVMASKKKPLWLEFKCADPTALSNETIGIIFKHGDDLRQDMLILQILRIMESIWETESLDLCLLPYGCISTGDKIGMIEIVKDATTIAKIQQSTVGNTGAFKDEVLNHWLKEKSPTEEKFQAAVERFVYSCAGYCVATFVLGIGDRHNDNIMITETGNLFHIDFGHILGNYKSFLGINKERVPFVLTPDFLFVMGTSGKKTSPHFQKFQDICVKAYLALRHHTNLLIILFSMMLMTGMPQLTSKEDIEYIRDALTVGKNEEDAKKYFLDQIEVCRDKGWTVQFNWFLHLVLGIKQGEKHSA
Experiment: PI3K-γ scintillation proximity assay
Settings: 20 μM PIP2, 2 μM ATP, 13 nM PI3Kγ, 120 min, room temperature
Source text: Example B. PI3K-γ Scintillation Proximity Assay [γ-^33P]ATP (10 mCi/mL) and Wheat Germ Agglutinin (WGA) YSi SPA Scintillation Beads was purchased from PerkinElmer (Waltham, Mass.). Lipid kinase substrate, D-myo-Phosphatidylinositol 4,5-bisphosphate (PtdIns(4,5)P2)D (+)-sn-1,2-di-O-octanoylglyceryl, 3-O-phospho linked (PIP2), CAS 204858-53-7, was purchased from Echelon Biosciences (Salt Lake City, Utah). PI3Kγ (p110γ) Recombinant Human Protein was purchased from Life technology (Grand Island, N.Y.). […]

Record COc1ncccc1-c1cn2c(-c3cc(C(C)(O)C(F)F)ccc3C)cnc2c(N)n1 (stereo not shown) , field IC50: < 100 nM

The measured IC50 associated with Cc1ccc(C(C)(O)C(F)F)cc1-c1cnc2c(N)nc(-c3cncnc3)cn12 (stereo not shown) reads < 100 nM

Lab book: IC50 of Cc1ncc(C(C)(O)C(F)(F)F)cc1-c1cnc2c(N)nc(C(F)(F)F)cn12 (stereo not shown) noted as 100 to 500 nM

Please fill in: IC50 reported for Cc1ccc(C(O)(C(N)=O)C(F)(F)F)cc1-c1cnc2c(N)nc(C(=O)NCC(C)(C)O)cn12 (stereo not shown) = < 100 nM

###

System: Phosphorylated Ribosomal Protein S6 (RPS6) in THP-1 cells
Assay: THP-1 RPS6 ELISA assay
Type: cell-based, Human
Conditions: THP-1 cells, serum starved, 2 h compound, 10 nM MCP-1 for 15 min, phospho-RPS6 ELISA; read-out: PI3Kγ_THP1_RPS6_ELISA IC50
pIC50: −log10 of the molar value. Structures can show the parent of a compound that is named as a salt.
measured-parameter: pIC50

Query Cc1ccc(C(C)(O)C(F)(F)F)cc1-c1cnc2c(N)nc(C(F)(F)F)cn12 (single isomer, unassigned) [Example 5] yields pIC50 of 6.00 to 6.30

Reported pIC50 of Cc1ccc(C(C)(O)C(F)(F)F)cc1-c1cnc2c(N)nc(C3CC(CO)C3)cn12 (single isomer, unassigned) [Example 208, trifluoroacetate] : > 7.00

Lab book: pIC50 of Cc1ccc(C(C)(O)C(F)F)cc1-c1cnc2c(N)nc(C(F)(F)F)cn12 (single isomer, unassigned) [Example 27] noted as 6.30 to 7.00

Data point: Cc1ccc(C(C)(O)C(F)(F)F)cc1-c1cnc2c(N)nc(C(F)(F)F)cn12 (single isomer, unassigned) [Example 6] ; pIC50 = 6.30 to 7.00

Just so you know, measured pIC50 for Cc1ccc(C(C)(O)C(F)(F)F)cc1-c1cnc2c(N)nc(-c3ccnc(CO)c3)cn12 (single isomer, unassigned) [Example 12] came out at > 7.00

Per the record, Cc1ccc(C(C)(O)C(F)F)cc1-c1cnc2c(N)nc(-c3ccnn3C)cn12 (single isomer, unassigned) [Example 30] has pIC50 of 6.30 to 7.00

The compound Cc1ccc(C(C)(O)C(F)(F)F)cc1-c1cnc2c(N)nc(C(=O)NCC(C)(C)O)cn12 (single isomer, unassigned) [Example 63] showed pIC50 equal to 6.30 to 7.00

###

Target: PI3Kδ (p110δ/p85α) Recombinant Human Protein (Homo sapiens (Human), UniProt O00329)
Sequence (O00329 whole entry): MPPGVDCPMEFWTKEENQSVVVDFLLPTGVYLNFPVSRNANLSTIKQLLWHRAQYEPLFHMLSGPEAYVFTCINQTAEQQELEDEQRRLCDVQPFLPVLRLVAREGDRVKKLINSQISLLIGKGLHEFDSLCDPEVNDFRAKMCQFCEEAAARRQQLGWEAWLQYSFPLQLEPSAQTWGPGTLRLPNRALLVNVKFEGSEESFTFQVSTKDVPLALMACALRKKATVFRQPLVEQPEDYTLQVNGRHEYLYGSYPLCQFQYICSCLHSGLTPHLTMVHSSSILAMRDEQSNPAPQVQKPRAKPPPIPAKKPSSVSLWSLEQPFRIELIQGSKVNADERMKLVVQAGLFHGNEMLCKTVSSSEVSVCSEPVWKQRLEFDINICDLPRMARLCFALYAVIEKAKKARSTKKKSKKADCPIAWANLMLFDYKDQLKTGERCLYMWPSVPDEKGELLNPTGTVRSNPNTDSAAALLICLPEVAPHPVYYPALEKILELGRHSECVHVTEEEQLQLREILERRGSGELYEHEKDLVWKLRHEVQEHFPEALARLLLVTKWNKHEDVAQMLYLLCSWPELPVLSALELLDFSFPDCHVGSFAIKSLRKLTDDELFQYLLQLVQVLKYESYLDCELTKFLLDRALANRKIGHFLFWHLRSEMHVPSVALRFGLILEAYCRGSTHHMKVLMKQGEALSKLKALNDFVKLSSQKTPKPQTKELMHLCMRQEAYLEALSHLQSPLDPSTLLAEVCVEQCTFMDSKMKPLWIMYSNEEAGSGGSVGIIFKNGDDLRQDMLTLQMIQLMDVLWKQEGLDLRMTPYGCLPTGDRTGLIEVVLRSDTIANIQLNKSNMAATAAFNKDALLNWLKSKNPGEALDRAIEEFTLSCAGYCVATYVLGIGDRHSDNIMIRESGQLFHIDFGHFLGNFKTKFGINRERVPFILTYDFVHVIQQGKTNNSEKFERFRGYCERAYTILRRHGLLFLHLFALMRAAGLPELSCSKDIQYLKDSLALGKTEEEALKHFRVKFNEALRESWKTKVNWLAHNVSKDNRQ
Sequence (P27986 whole entry partner): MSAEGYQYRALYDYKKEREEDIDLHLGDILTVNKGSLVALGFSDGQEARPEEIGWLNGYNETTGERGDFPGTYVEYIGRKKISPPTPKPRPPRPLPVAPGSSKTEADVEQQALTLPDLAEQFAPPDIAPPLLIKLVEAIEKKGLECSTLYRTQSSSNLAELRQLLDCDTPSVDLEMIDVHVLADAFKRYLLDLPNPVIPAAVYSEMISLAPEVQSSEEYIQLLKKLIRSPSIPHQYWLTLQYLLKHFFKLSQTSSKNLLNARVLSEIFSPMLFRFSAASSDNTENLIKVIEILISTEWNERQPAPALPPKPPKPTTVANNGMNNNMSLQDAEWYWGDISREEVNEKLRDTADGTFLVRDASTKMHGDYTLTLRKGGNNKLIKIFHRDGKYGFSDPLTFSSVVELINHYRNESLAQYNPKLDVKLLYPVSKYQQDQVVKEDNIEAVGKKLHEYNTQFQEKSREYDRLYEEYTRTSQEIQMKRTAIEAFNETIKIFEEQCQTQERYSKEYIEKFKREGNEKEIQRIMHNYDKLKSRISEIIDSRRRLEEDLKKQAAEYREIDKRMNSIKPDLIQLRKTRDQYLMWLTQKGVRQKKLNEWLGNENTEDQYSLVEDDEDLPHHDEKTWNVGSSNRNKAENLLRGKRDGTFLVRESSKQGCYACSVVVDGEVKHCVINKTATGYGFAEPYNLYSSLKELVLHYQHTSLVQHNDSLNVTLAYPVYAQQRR
Assay: PI3Kδ scintillation proximity assay
Assay type: biochemical
Conditions: PI3Kδ IC50 (nM), 20 μM PIP2, 2 μM ATP, 3.4 nM PI3Kδ, 120 min, room temperature
measured-parameter: IC50

Recorded IC50 (molecule CNCCC(O)(c1ccc(C)c(-c2cnc3c(N)nc(C(F)(F)F)cn23)c1)C(F)(F)F (stereo not shown) [Example 14, bis(2,2,2-trifluoroacetate)] ): 100 to 500 nM

###

Molecular target: PI3Kδ (p110δ/p85α) Recombinant Human Protein (Homo sapiens (Human), UniProt O00329)
Assay: PI3Kδ scintillation proximity assay
Format: biochemical
Settings: 20 μM PIP2, 2 μM ATP, 3.4 nM PI3Kδ, 120 min, room temperature; read-out: PI3Kδ IC50
pIC50: −log10 of the molar value. Where a name gives a salt, the structure may show the parent alone.
measured-parameter: pIC50

# pIC50 of Cc1ccc(C(C)(O)C(F)F)cc1-c1cnc2c(N)nc(-c3cnn(C)c3C)cn12 (stereo not drawn) [Example 36] = > 7.00

pIC50 for [2H]C([2H])([2H])n1nccc1-c1cn2c(-c3cc(C(O)(CO)C(F)(F)F)ccc3C)cnc2c(N)n1 (single isomer, unassigned) [Example 66] is > 7.00

Lab book: pIC50 of [2H]C([2H])([2H])c1ccc(C(O)(C(C)O)C(F)(F)F)cc1-c1cnc2c(N)nc(C(F)(F)F)cn12 (single isomer, unassigned) [Example 233, trifluoroacetate salt] noted as 6.30 to 7.00

###

For each entry below, report its pIC50 value.
Molecular target: PI3Kδ (p110δ/p85α) Recombinant Human Protein (Homo sapiens (Human))
Assay: PI3Kδ scintillation proximity assay
Format: biochemical
Details: 20 μM PIP2, 2 μM ATP, 3.4 nM PI3Kδ, 120 min, room temperature; read-out: PI3Kδ IC50
pIC50: −log10 of the molar value. Structures can show the parent of a compound that is named as a salt.

In plain terms, [2H]C([2H])([2H])c1ccc(C(C)(O)C(F)(F)F)cc1-c1cnc2c(N)nc(-c3ccc(C(C)O)nc3)cn12 (centres unmarked) [Example 267] has a documented pIC50 of > 7.00

Summary for this compound, COc1cnc(-c2cn3c(-c4cc(C(C)(O)C(F)(F)F)ccc4C)cnc3c(N)n2)s1 (centres unmarked) [Example 21, TFA] : pIC50 is > 7.00

Form: compound = Cc1ccc(C2(O)CCCC2F)cc1-c1cnc2c(N)nc(C(F)(F)F)cn12 (centres unmarked) [Example 61, trifluoroacetate salt] ; pIC50 = 6.30 to 7.00

Notebook: Cc1ccc(C(C)(O)C(F)F)cc1-c1cnc2c(N)nc(C(F)(F)F)cn12 (single isomer, unassigned) [Example 26] , pIC50 read as 5.70 to 6.30

// field: pIC50; key: Cc1ccc(C(C)(O)C(F)(F)F)cc1-c1cnc2c(N)nc(C(=O)NC34COC(CO)(C3)C4)cn12 (centres unmarked) [Example 279, trifluoroacetate salt] ; value = 6.30 to 7.00

Record COc1ncccc1-c1cn2c(-c3cc(C(C)(O)C(F)F)ccc3C)cnc2c(N)n1 (centres unmarked) [Example 33] . Reported pIC50: 6.30 to 7.00

Documented pIC50 of Cc1ccc(C(C)(O)C(F)F)cc1-c1cnc2c(N)nc(-c3ccnn3C)nn12 (single isomer, unassigned) [Example 51, trifluoroacetate salt] : > 7.00

Cc1ccc(C(C)(O)C(F)F)cc1-c1cnc2c(N)nc(-c3ccc(CO)nc3)cn12 (centres unmarked) [Example 46, trifluoroacetate] yielded pIC50 of 6.30 to 7.00
